Item-by-item account of remaining at 1 h, 1 µM
System: Pepsin
Construct: purchased Merck Millipore
Assay: Protease stability in simulated gastric fluid (Pepsin-SGF, FaSSGF)
Format: in vitro ADME
Conditions: simulated gastric fluid with pepsin (Pepsin-SGF), 60 min, 1 μM peptide, 37° C., read-out: FaSSGF 60 (min), remaining percent of peptide
Starred links: 1 amine or outer side, 2 acyl side, 3 side chain; linkers in the order of their positions; H or OH if unused. Positions of bridges follow the written chain, without caps; N, C: chain ends. Non-standard residues stand in square brackets, D forms with d. Residues, ends and D or L forms follow the SMILES beside them. *: point of attachment. X3 = CN(CCCCC(=O)N[C@@H](CS[*:2])C(=O)[*:1])[*:3]; X6 = O=C(CCC(=O)[*:3])N[C@@H](CS[*:2])C(=O)[*:1]; Trp(7-Me) = Cc1cccc2c(C[C@H](N)C(=O)O)c[nH]c12; X1 = O=C(CCCCN[*:3])N[C@@H](CS[*:2])C(=O)[*:1]; Trp(1-Me) = Cn1cc(C[C@H](N)C(=O)O)c2ccccc21; 2Nal = N[C@@H](Cc1ccc2ccccc2c1)C(=O)O; 3Pal = N[C@@H](Cc1cccnc1)C(=O)O; αMeL = CC(C)C[C@](C)(N)C(=O)O; Thp = NC1(C(=O)O)CCOCC1; Me2NCH2CH2 = CN(C)CC*; Aib = CC(C)(N)C(=O)O; Ava = NCCCCC(=O)O; Sar = CNCC(=O)O
MEASURED_METRIC: remaining at 1 h, 1 µM (%)

molecule="CC(=O)NCCCC[C@@H]1NC(=O)[C@H](Cc2c[nH]c3c(C)cccc23)NC(=O)[C@@H](NC(C)=O)CCCCNC(=O)[C@@H]2CSSC[C@H](NC1=O)C(=O)N[C@@H](Cc1ccc(OCCN(C)C)cc1)C(=O)N[C@@H](Cc1ccc3ccccc3c1)C(=O)NC(C)(C)C(=O)N[C@H](C(=O)N[C@@H](CC(N)=O)C(=O)N[C@@H](Cc1c[nH]cn1)C(N)=O)CCC(=O)N(C)CCCCC(=O)N2 [compound 60] (Ac-K[Trp(7-Me)]K(Ac)CY(Me2NCH2CH2)[2Nal][Aib]ENH-NH2; linker 1-4-8 via X3)" measured_metric="remaining at 1 h, 1 µM" obs_value=68
molecule="CC(=O)N[C@H]1CCCCNC(=O)[C@@H]2CSSC[C@H](NC(=O)[C@H](CC(C)C)NC(=O)[C@H](Cc3c[nH]c4c(C)cccc34)NC1=O)C(=O)N[C@@H](Cc1ccc(OCCN(C)C)cc1)C(=O)N[C@@H](Cc1ccc3ccccc3c1)C(=O)N[C@@](C)(CC(C)C)C(=O)N[C@H](C(=O)N[C@@H](CC(N)=O)C(=O)N[C@@H](Cc1cccnc1)C(=O)N(C)CC(N)=O)CCCCNC(=O)CCC(=O)N2 [compound 158] (Ac-K[Trp(7-Me)]LCY(Me2NCH2CH2)[2Nal][αMeL]KN[3Pal][Sar]-NH2; linker 1-4-8 via X6)" measured_metric="remaining at 1 h, 1 µM" obs_value=37
molecule="CC(=O)NCCCC[C@@H]1NC(=O)[C@H](Cc2cn(C)c3ccccc23)NC(=O)[C@@H](NC(C)=O)CCCCNC(=O)[C@@H]2CSSC[C@H](NC1=O)C(=O)N[C@@H](Cc1ccc(OCCN(C)C)cc1)C(=O)N[C@@H](Cc1ccc3ccccc3c1)C(=O)NC1(CCOCC1)C(=O)N[C@H](C(=O)N[C@@H](CC(N)=O)C(=O)N[C@@H](Cc1cccnc1)C(=O)N(C)CC(N)=O)CCC(=O)NCCCCC(=O)N2 [compound 126] (Ac-K[Trp(1-Me)]K(Ac)CY(Me2NCH2CH2)[2Nal][Thp]EN[3Pal][Sar]-NH2; linker 1-4-8 via X1)" measured_metric="remaining at 1 h, 1 µM" obs_value=80
molecule="CC[C@H](C)[C@H](NC(=O)[C@H](Cc1cccnc1)NC(=O)[C@H](CC(N)=O)NC(=O)[C@@H]1CCC(=O)NCCCCC(=O)N[C@H]2CSSC[C@H](NC(=O)[C@H](CCCCNC(C)=O)NC(=O)[C@H](Cc3c[nH]c4ccccc34)NC(=O)[C@H]([C@@H](C)O)NC(=O)[C@H](CC(N)=O)NC2=O)C(=O)N[C@@H](Cc2ccc(OCCN(C)C)cc2)C(=O)N[C@@H](Cc2ccc3ccccc3c2)C(=O)NC(C)(C)C(=O)N1)C(N)=O [compound 37] ([Ava]CNTWK(Ac)CY(Me2NCH2CH2)[2Nal][Aib]EN[3Pal]I-NH2; disulfide 2-7; lactam N-11)" measured_metric="remaining at 1 h, 1 µM" obs_value=77
